B1: glmS ribozyme (parent)
chain: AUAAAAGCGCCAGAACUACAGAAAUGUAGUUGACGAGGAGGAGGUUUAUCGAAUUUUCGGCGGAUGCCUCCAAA

# Variants of: B1
# protocolText: self-cleavage kobs at 2500 uM GlcN6P; higher = faster cleavage; RNA array
# particulars: with glucosamine-6-phosphate
This sample holds only a part of the variants without activity.
metric: self-cleavage kobs at 2500 uM GlcN6P

U30G G44A :: 6.16e-05 s⁻¹
A4C :: 0.0314 s⁻¹
A6U U31C C50A U56G :: < 1e-05 s⁻¹
A15G A39C A53U :: 0.00236 s⁻¹
A6C G60U :: < 1e-05 s⁻¹
C16G U65G :: 0.000455 s⁻¹

Could you report self-cleavage kobs at 2500 uM GlcN6P for every entry in the following list?
1. C10A A15U A42C G44C U56A C67G C70G
2. G9C G37U
3. C16G A39C
4. C16A C68G

< 1e-05 s⁻¹
< 1e-05 s⁻¹
0.000427 s⁻¹
3.3e-05 s⁻¹

# batch size: 6; output self-cleavage kobs at 2500 uM GlcN6P per entry
1. C8G A12G G51U C58U C67A C68U
2. G37U G38C
3. G7C A14U U56A
4. U45C C68U
5. U46G U65G
6. U31A C67G

0.000214 s⁻¹
< 1e-05 s⁻¹
< 1e-05 s⁻¹
0.000877 s⁻¹
0.00124 s⁻¹
0.000201 s⁻¹

Dear colleague, could you please provide self-cleavage kobs at 2500 uM GlcN6P for the variants listed below?
1. G13C G29C
2. G13C A14G U46A
3. G7U G35C G43A A48G
4. G35A C61U
5. C11G G44U C50G G62C
6. C50G C71A
7. A12U U56G U57G C58A A64G

1. 3.23e-05 s⁻¹
2. 5.24e-05 s⁻¹
3. < 1e-05 s⁻¹
4. < 1e-05 s⁻¹
5. < 1e-05 s⁻¹
6. 0.000153 s⁻¹
7. 5.56e-05 s⁻¹
